Quick list: pKd per entry.
target: human transferrin receptor (hTfR) (Homo sapiens); construct: made in house; assay: Evaluation of molecular interaction between transferrin receptor (hTfR) and peptide using surface plasmon resonance (SPR); format: binding; settings: KD class for binding to hTfR by SPR; peptide with the linker shown in the same line; 'low signal indicates no activity'; read-out: SPR
Sequence (P02786 89-760 limits assumed): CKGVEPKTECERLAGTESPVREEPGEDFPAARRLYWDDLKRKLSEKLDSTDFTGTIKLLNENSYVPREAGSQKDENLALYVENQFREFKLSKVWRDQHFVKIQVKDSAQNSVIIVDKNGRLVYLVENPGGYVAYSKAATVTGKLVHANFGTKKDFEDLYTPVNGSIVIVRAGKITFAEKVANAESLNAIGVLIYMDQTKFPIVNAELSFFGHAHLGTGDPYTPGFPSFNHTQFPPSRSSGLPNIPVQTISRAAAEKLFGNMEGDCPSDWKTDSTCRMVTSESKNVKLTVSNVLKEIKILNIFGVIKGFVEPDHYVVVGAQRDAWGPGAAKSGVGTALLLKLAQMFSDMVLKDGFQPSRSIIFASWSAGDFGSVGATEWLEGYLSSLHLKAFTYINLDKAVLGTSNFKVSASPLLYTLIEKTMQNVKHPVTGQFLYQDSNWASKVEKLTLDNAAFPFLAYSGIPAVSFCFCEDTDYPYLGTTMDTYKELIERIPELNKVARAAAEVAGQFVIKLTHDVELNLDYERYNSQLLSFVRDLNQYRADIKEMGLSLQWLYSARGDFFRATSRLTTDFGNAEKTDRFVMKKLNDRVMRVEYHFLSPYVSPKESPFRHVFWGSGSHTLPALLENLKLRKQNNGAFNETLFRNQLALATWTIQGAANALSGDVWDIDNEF
pKd: −log10 of the molar value.

{"columns": ["compound", "pKd"],
 "data": [
  ["CC[C@H](C)[C@@H]1NC(=O)[C@H](Cc2ccc(OC)cc2)NC(=O)[C@H](Cc2ccc(O)cc2)NC(=O)[C@H](CC(N)=O)NC(=O)[C@H](Cc2c[nH]c3ccc(Cl)cc23)NC(=O)[C@H](C(C)C)NC(=O)[C@H](Cc2ccccc2)N(C)C(=O)[C@H](C(C)C)NC(=O)[C@H](C)NC(=O)CSC[C@@H](C(=O)NCC(=O)N[C@@H](CCCCN=[N+]=[N-])C(N)=O)NC(=O)[C@H](Cc2ccc(O)cc2)N(C)C(=O)[C@H](Cc2ccccc2)NC(=O)[C@@H](CCCNC(=N)N)NC(=O)[C@H](CCCNC(=N)N)NC(=O)[C@H]([C@@H](C)CC)NC1=O [894_3155]", "7.00 to 9.00"],
  ["CC[C@H](C)[C@@H]1NC(=O)[C@H](Cc2ccc(OC)cc2)NC(=O)[C@H](Cc2ccc(O)cc2)NC(=O)[C@H](CC(N)=O)NC(=O)[C@H](Cc2c[nH]c3ccc(Cl)cc23)NC(=O)[C@H](C(C)C)NC(=O)[C@H](Cc2ccccc2)N(C)C(=O)[C@H](C(C)C)NC(=O)[C@H](C)NC(=O)CSC[C@@H](C(=O)NCC(=O)N[C@@H](CCCCN=[N+]=[N-])C(N)=O)NC(=O)[C@H](Cc2ccc(O)cc2)N(C)C(=O)[C@H](Cc2ccc(O)cc2)NC(=O)[C@H](CCCNC(=N)N)NC(=O)[C@H](CCCNC(=N)N)NC(=O)[C@H]([C@@H](C)CC)NC1=O [894_3162]", "7.00 to 9.00"]
]}

----------
target: human transferrin receptor (hTfR) (Homo sapiens); construct: made in house; experiment: Evaluation of molecular interaction between transferrin receptor (hTfR) and peptide using surface plasmon resonance (SPR); assay type: binding; conditions: KD class for binding to hTfR by SPR; peptide with the linker shown in the same line; 'low signal indicates no activity'; read-out: SPR
pKd: −log10 of the molar value.

{"columns": ["lineNotation", "testedOn", "pKd"],
 "data": [
  ["CC[C@H](C)[C@@H]1NC(=O)[C@H](Cc2ccc(OC)cc2)NC(=O)[C@H](Cc2ccc(O)cc2)NC(=O)[C@H](CC(N)=O)NC(=O)[C@H](Cc2c[nH]c3ccccc23)NC(=O)[C@H](C(C)C)NC(=O)[C@H](Cc2cccc(Cl)c2)N(C)C(=O)[C@H](C(C)C)NC(=O)[C@H](C)NC(=O)CSC[C@@H](C(=O)NCC(=O)N[C@@H](CCCCN=[N+]=[N-])C(N)=O)NC(=O)[C@H](Cc2ccc(O)cc2)N(C)C(=O)[C@H](Cc2ccc(O)cc2)NC(=O)[C@H](CCCNC(=N)N)NC(=O)[C@H](CCCNC(=N)N)NC(=O)[C@H]([C@@H](C)CC)NC1=O", "human transferrin receptor (hTfR) (Homo sapiens)", "7.00 to 9.00"],
  ["CC[C@H](C)[C@@H]1NC(=O)[C@H](Cc2ccc(OC)cc2)NC(=O)[C@H](Cc2ccc(O)cc2)NC(=O)[C@H](CC(N)=O)NC(=O)[C@H](Cc2c[nH]c3ccc(Cl)cc23)NC(=O)[C@H](C(C)C)NC(=O)[C@H](Cc2ccc(F)cc2)N(C)C(=O)[C@H](C(C)C)NC(=O)[C@H](C)NC(=O)CSC[C@@H](C(=O)NCC(=O)N[C@@H](CCCCN=[N+]=[N-])C(N)=O)NC(=O)[C@H](Cc2ccc(O)cc2)N(C)C(=O)[C@H](Cc2ccc(O)cc2)NC(=O)[C@H](CCCNC(=N)N)NC(=O)[C@H](CCCNC(=N)N)NC(=O)[C@H]([C@@H](C)CC)NC1=O", "human transferrin receptor (hTfR) (Homo sapiens)", "7.00 to 9.00"]
]}
